# procedure_summary: Pharmacokinetic study in rats (oral / intravenous), systemic half-life by LC-MS/MS
# Type: in vivo, rats (Sprague-Dawley)
# Parameters: key: NC: plasma concentration of prodrug was too low to calculate half-life, or undetected
# condition_summary: Rat; systemic half-life of intact prodrug; SD in parenthesis
result_type: T1/2 Prodrug

compound	T1/2 Prodrug
Cc1cc(C(=O)O)ccc1S(=O)(=O)n1c([S+]([O-])Cc2nccc(OCC(F)(F)F)c2C)nc2ccccc21 (stereo not shown)	NC
Cc1ccc(C(=O)O)cc1S(=O)(=O)n1c([S+]([O-])Cc2nccc(OCC(F)(F)F)c2C)nc2ccccc21 (stereo not shown)	NC
Cc1c(OCC(F)(F)F)ccnc1C[S+]([O-])c1nc2ccccc2n1S(=O)(=O)c1ccc(C(=O)O)cc1 (stereo not shown)	NC
Cc1cc(OCC(=O)O)cc(C)c1S(=O)(=O)n1c([S+]([O-])Cc2nccc(OCC(F)(F)F)c2C)nc2ccccc21 (stereo not shown)	NC
Cc1c(OCC(F)(F)F)ccnc1C[S+]([O-])c1nc2ccccc2n1S(=O)(=O)c1cccc(C(=O)O)c1 (stereo not shown)	NC

For each of the compounds below, note its T1/2 Prodrug.
1. COc1ccc(S(=O)(=O)n2c([S+]([O-])Cc3nccc(OCC(F)(F)F)c3C)nc3ccccc32)cc1C(=O)O (stereo not shown)
2. Cc1c(OCC(F)(F)F)ccnc1C[S+]([O-])c1nc2ccccc2n1S(=O)(=O)c1ccc(OCC(=O)O)c(OCC(=O)O)c1 (stereo not shown)
3. Cc1c(OCC(F)(F)F)ccnc1C[S+]([O-])c1nc2ccccc2n1S(=O)(=O)c1ccc(CC(=O)O)cc1 (stereo not shown)
4. Cc1c(OCC(F)(F)F)ccnc1C[S+]([O-])c1nc2ccccc2n1S(=O)(=O)c1ccc(OCC(C)(C)C(=O)O)cc1 (stereo not shown)
5. Cc1c(OCC(F)(F)F)ccnc1C[S+]([O-])c1nc2ccccc2n1S(=O)(=O)c1ccc(C(=O)O)c(OCC(=O)O)c1 (stereo not shown)

Response line:
NC
NC
NC
NC
NC

----------
# procedure_summary: Pharmacokinetic study in dogs (oral / intravenous), systemic half-life by LC-MS/MS
# Format: in vivo, dogs (beagle)
# condition_summary: Dog; systemic half-life of the proton pump inhibitor; SD in parenthesis
Consider the following molecules; for each one, report its T1/2 PPI.
Give bare numbers, in min.

molecule	recorded_result
COCCCOc1ccnc(C[S+]([O-])c2nc3ccccc3n2S(=O)(=O)c2ccc(C(=O)O)cc2)c1C (stereo not shown)	53.6
Cc1c(OCC(F)(F)F)ccnc1C[S+]([O-])c1nc2ccccc2n1S(=O)(=O)c1ccc(CC(=O)O)cc1C(C)C (stereo not shown)	55.4
COCCCOc1ccnc(C[S+]([O-])c2nc3ccccc3n2S(=O)(=O)c2cc(C(=O)O)ccc2C)c1C (stereo not shown)	51.3
Cc1c(OCC(F)(F)F)ccnc1C[S+]([O-])c1nc2ccccc2n1S(=O)(=O)c1ccc(CC(=O)O)c(CC(=O)O)c1 (stereo not shown)	55.9
Cc1cc(OCC(=O)O)cc(C(C)C)c1S(=O)(=O)n1c([S+]([O-])Cc2nccc(OCC(F)(F)F)c2C)nc2ccccc21 (stereo not shown)	67.8
COCCCOc1ccnc(C[S+]([O-])c2nc3ccccc3n2S(=O)(=O)c2cccc(C(=O)O)c2)c1C (stereo not shown)	29.5
Cc1c(OCC(F)(F)F)ccnc1C[S+]([O-])c1nc2ccccc2n1S(=O)(=O)c1cccc(C(=O)O)c1 (stereo not shown)	53.6
Cc1c(OCC(F)(F)F)ccnc1C[S+]([O-])c1nc2ccccc2n1S(=O)(=O)c1ccc(CC(=O)O)cc1 (stereo not shown)	53.6
COCCCOc1ccnc(C[S+]([O-])c2nc3ccccc3n2S(=O)(=O)c2c(C)cc(OCC(=O)O)cc2C)c1C (stereo not shown)	91.2
Cc1c(OCC(F)(F)F)ccnc1C[S+]([O-])c1nc2ccccc2n1S(=O)(=O)c1ccc(C(=O)O)c(OCC(=O)O)c1 (stereo not shown)	60

Lab note: next molecule to report on.
Prompt line: Note T1/2 PPI for the molecule shown: Cc1ccc(C(=O)O)cc1S(=O)(=O)n1c([S+]([O-])Cc2nccc(OCC(F)(F)F)c2C)nc2ccccc21 (stereo not shown)
Response line: 106
